Experiment: Acute toxicity in human LS 174T cells at IC50 after 6 hrs by formazan test
Format: cell-based
Conditions: ls174t
metricName: Activity

Known Activity results, listed for orientation:
{"molecule": "CC(=O)O[C@H]1O[C@@H]2O[C@@]3(C)CC[C@H]4[C@H](C)CC[C@@H]([C@H]1C)[C@@]24OO3", "Activity": "Non-toxic"}
{"molecule": "CCCC(CCC)C(=O)O[C@H]1O[C@@H]2O[C@@]3(C)CC[C@H]4[C@H](C)CC[C@@H]([C@H]1C)[C@@]24OO3", "Activity": "Non-toxic"}
{"molecule": "CCC(C)O[C@H]1O[C@@H]2O[C@@]3(C)CC[C@H]4[C@H](C)CC[C@@H]([C@H]1C)[C@@]24OO3 (stereo partly specified)", "Activity": "Non-toxic"}
{"molecule": "C[C@H]1[C@@H](OC(=O)C(C)(C)C)O[C@@H]2O[C@@]3(C)CC[C@H]4[C@H](C)CC[C@@H]1[C@@]24OO3", "Activity": "Non-toxic"}
{"molecule": "C[C@H]1[C@H](OC(=O)CCC(=O)O)O[C@@H]2O[C@@]3(C)CC[C@H]4[C@H](C)CC[C@@H]1[C@@]24OO3 [ARTESUNATE]", "Activity": "Toxic"}

Let's switch to this molecule now.
Query CCCC(=O)O[C@H]1O[C@@H]2O[C@@]3(C)CC[C@H]4[C@H](C)CC[C@@H]([C@H]1C)[C@@]24OO3 yields Activity of Non-toxic

----------
Assay: Cytotoxicity against bovine EBTr cells at 20 to 100 uM after 72 hrs by MTT assay
Type: cell-based, Bos taurus
Settings: cattle

{"compound": "C[C@H]1[C@@H](O)O[C@@H]2O[C@@]3(C)CC[C@H]4[C@H](C)CC[C@@H]1[C@@]24OO3", "Activity": "Toxic"}
{"compound": "C[C@H]1[C@@H](OC(=O)C(C)(C)C)O[C@@H]2O[C@@]3(C)CC[C@H]4[C@H](C)CC[C@@H]1[C@@]24OO3", "Activity": "Toxic"}
{"compound": "CCCC(CCC)C(=O)O[C@H]1O[C@@H]2O[C@@]3(C)CC[C@H]4[C@H](C)CC[C@@H]([C@H]1C)[C@@]24OO3", "Activity": "Toxic"}
{"compound": "CCC(C)O[C@H]1O[C@@H]2O[C@@]3(C)CC[C@H]4[C@H](C)CC[C@@H]([C@H]1C)[C@@]24OO3 (some centres undefined)", "Activity": "Toxic"}

----------
Assay: Acute toxicity in bovine EBTr cells at 50 uM after 72 hrs
Format: cell-based, Bos taurus
Conditions: cattle
metricName: Activity

Known Activity results, listed for orientation:
{"compound": "CCCC(CCC)C(=O)O[C@H]1O[C@@H]2O[C@@]3(C)CC[C@H]4[C@H](C)CC[C@@H]([C@H]1C)[C@@]24OO3", "Activity": "Non-toxic"}
{"compound": "CCC(C)O[C@H]1O[C@@H]2O[C@@]3(C)CC[C@H]4[C@H](C)CC[C@@H]([C@H]1C)[C@@]24OO3 (some centres undefined)", "Activity": "Non-toxic"}
{"compound": "C[C@H]1[C@@H](OC(=O)C(F)(F)C(F)(F)F)O[C@@H]2O[C@@]3(C)CC[C@H]4[C@H](C)CC[C@@H]1[C@@]24OO3", "Activity": "Non-toxic"}
{"compound": "CC1=CO[C@@H]2O[C@]3(C)CC[C@H]4[C@H](C)CC[C@@H]1[C@@]24OO3 [ANHYDRODIHYDROARTEMISININ]", "Activity": "Non-toxic"}
{"compound": "C[C@H]1[C@@H](OC(=O)C(C)(C)C)O[C@@H]2O[C@@]3(C)CC[C@H]4[C@H](C)CC[C@@H]1[C@@]24OO3", "Activity": "Non-toxic"}
{"compound": "CC(=O)O[C@H]1O[C@@H]2O[C@@]3(C)CC[C@H]4[C@H](C)CC[C@@H]([C@H]1C)[C@@]24OO3", "Activity": "Non-toxic"}

Query C[C@H]1[C@@H](O)O[C@@H]2O[C@@]3(C)CC[C@H]4[C@H](C)CC[C@@H]1[C@@]24OO3 [ARTENIMOL] yields Activity of Non-toxic

Query CCCC(=O)O[C@H]1O[C@@H]2O[C@@]3(C)CC[C@H]4[C@H](C)CC[C@@H]([C@H]1C)[C@@]24OO3 yields Activity of Non-toxic

Query C[C@H]1[C@@H](OC(=O)N(C)C)O[C@@H]2O[C@@]3(C)CC[C@H]4[C@H](C)CC[C@@H]1[C@@]24OO3 yields Activity of Non-toxic

Data credit: ChEMBL document CHEMBL2396627
